# Test system: 885724-159-R-J1-PDC complex spheroid viability;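 also: spheroids exposed to compounds for 7 days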
# assay explanation: Anticancer human tumor 885724-159-R-J1-PDC patient-derived pancreatic adenocarcinoma cell line growth inhibition [POLQ]
# condition details: second compound 3.16 µM; first compound 10 µM; stronger effect = lower value
reported property: viability, T/C (%)
Numbers only, in %.

compound: CCc1cc2c(N3CCc4c(cc(Cn5ccnc5)cc4-c4cn(C)nc4C(F)(F)F)C3=O)cc(C)nc2c(OC)n1 + Nc1ccc(C#CCN(C(=O)Cc2ncc(C(F)(F)F)cc2C(F)(F)F)c2ccc(F)cc2)nn1
measured result: 69.8
//
compound: CCc1cc2c(N3CCc4c(cc(Cn5ccnc5)cc4-c4cn(C)nc4C(F)(F)F)C3=O)ccnc2c(OC)n1 + Cc1cccc(N(C)C(=O)C2C(O)CCN2c2nc(C)cc(C(F)(F)F)c2C#N)c1
measured result: 72.6

Now look at this entry.
Task: Can you share its viability, T/C? I mean this compound: Nc1ccn(C2OC(CO)C(O)C2(F)F)c(=O)n1 (stereo not drawn) + Nc1ccc(C#CCN(C(=O)Cc2ncc(C(F)(F)F)cc2C(F)(F)F)c2ccc(F)cc2)nn1
Result: 46.4
